biological target: Acid-sensing ion channel 1 (Homo sapiens) (UniProt P78348); assay: Inhibition of human ASIC1a endogenously expressed in HEK293 cells clamped at -100 mV gated ionic current at 100 uM at pH 6.7 by standard whole cell patch clamp assay; assay type: cell-based
experimental_endpoint: inhibition (%)

CCN(CC)CCN(CC)c1ccc2cc(C(=N)N)c(=O)oc2c1 53.2

I = CCN(CC)c1ccc2cc(C(=N)N)c(=O)oc2c1
II = CN(Cc1ccccc1)c1ccc2cc(C(=N)N)c(=O)oc2c1
III = CCN(CC)CCN(Cc1ccccc1)c1ccc2cc(C(=N)N)c(=O)oc2c1
Task: Please list these compounds in decreasing order of inhibition. List the labels, following the order given in the request.
Output: I, II, III

---

target: Acid-sensing ion channel 1 (Homo sapiens) (UniProt P78348); assay: Inhibition of human ASIC1a endogenously expressed in HEK293 cells clamped at -100 mV gated ionic current at 100 uM at pH 5.0 by standard whole cell patch clamp assay; type: cell-based
experimental_endpoint: inhibition (%)

CCN(CC)c1ccc2cc(C(=N)N)c(=O)oc2c1 41
CCN(CC)CCN(Cc1ccccc1)c1ccc2cc(C(=N)N)c(=O)oc2c1 28.8

A = CN(Cc1ccccc1)c1ccc2cc(C(=N)N)c(=O)oc2c1
B = CCN(CC)CCN(CC)c1ccc2cc(C(=N)N)c(=O)oc2c1
Task: For the pair A and B , which entry has the numerically smaller recorded inhibition? Give the label under which the chosen entry appears.
Output: A

---

molecular target: Acid-sensing ion channel 1 (Homo sapiens) (UniProt P78348); assay: Inhibition of human ASIC1a endogenously expressed in HEK293 cells clamped at -100 mV gated ionic current at 10 uM at pH 6.7 by standard whole cell patch clamp assay; assay type: cell-based
experimental_endpoint: inhibition (%)

// solved cases for inhibition follow
CCN(CC)CCN(CC)c1ccc2cc(C(=N)N)c(=O)oc2c1 77.5
CN(Cc1ccccc1)c1ccc2cc(C(=N)N)c(=O)oc2c1 42.9

1 = CCN(CC)CCN(Cc1ccc(Cl)cc1)c1ccc2cc(C(=N)N)c(=O)oc2c1
2 = CCN(CC)CCN(Cc1ccccc1)c1ccc2cc(C(=N)N)c(=O)oc2c1
Task: For the pair 1 and 2 , which entry has the numerically smaller recorded inhibition? Give the label under which the chosen entry appears.
Output: 1

---

Target: Acid-sensing ion channel 1 (Homo sapiens, UniProt P78348)
Sequence (P78348 whole entry): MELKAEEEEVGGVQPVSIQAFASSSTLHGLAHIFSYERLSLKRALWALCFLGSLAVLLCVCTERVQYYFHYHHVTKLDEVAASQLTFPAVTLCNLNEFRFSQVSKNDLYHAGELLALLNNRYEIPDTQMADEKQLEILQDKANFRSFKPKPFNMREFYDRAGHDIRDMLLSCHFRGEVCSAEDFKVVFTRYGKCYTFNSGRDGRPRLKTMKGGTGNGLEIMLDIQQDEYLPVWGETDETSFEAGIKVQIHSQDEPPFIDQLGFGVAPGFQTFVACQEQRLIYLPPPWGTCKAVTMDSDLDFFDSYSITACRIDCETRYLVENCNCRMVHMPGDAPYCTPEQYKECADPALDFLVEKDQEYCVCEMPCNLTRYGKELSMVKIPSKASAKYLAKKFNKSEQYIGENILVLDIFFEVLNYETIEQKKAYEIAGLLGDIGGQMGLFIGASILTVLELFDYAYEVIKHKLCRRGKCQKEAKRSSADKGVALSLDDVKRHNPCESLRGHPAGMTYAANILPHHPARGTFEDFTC
Experiment: Inhibition of human ASIC1a endogenously expressed in HEK293 cells clamped at -100 mV gated ionic current at pH 5.0 by standard whole cell patch clamp assay
Type: cell-based
experimental_endpoint: pIC50
Keep it numeric: pIC50 is minus log10 of the concentration in mol/L.

pIC50 on Acid-sensing ion channel 1 (Homo sapiens, UniProt P78348) for CCN(CC)CCN(Cc1ccc(Cl)cc1)c1ccc2cc(C(=N)N)c(=O)oc2c1 is 5.13

---

molecular target: Acid-sensing ion channel 1 (Homo sapiens) (UniProt P78348); experiment: Inhibition of human ASIC1a endogenously expressed in HEK293 cells clamped at -100 mV gated ionic current at 10 uM at pH 5.0 by standard whole cell patch clamp assay; type: cell-based
experimental_endpoint: inhibition (%)

CN(Cc1ccccc1)c1ccc2cc(C(=N)N)c(=O)oc2c1 79.2

1 = CCN(CC)CCN(Cc1ccccc1)c1ccc2cc(C(=N)N)c(=O)oc2c1
2 = CCN(CC)CCN(Cc1ccc(Cl)cc1)c1ccc2cc(C(=N)N)c(=O)oc2c1
3 = CCN(CC)CCN(CC)c1ccc2cc(C(=N)N)c(=O)oc2c1
Task: Please list these compounds in decreasing order of inhibition. List the labels, following the order given in the request.
Output: 3, 1, 2
(3: 101%, 1: 65.7%, 2: 44.8%)
